- TEST_TARGET: T1, Peptide-8 (cysteine pairing not given here; also: biotinylated, site not given here)
- T1 peptide: VDFCGLYHWPICYQ
- TEST_DETAILS: ELISA, Fab on captured biotin-peptide
pEC50: −log10 of the molar value. Where no end group is shown, it is not given here.
Below, each entry is listed with its recorded pEC50.

BINDER: TBD-6 (LC I93A) (Fab, V domains shown, Fab; also called LC I93A mutant) VH: QVQLQQSGSELKKPGASVKVSCKASGYTFTNYGMNWVKQAPGQGLKWMGWINTYTGEPTYTDDFKGRFAFSLDTSVSTAYLQISSLKADDTAVYFCARGGFGSSYWYFDVWGQGSLVTVSS VL: DIQLTQSPSSLSASVGDRVSITCKASQDVSIAVAWYQQKPGKAPKLLIYSASYRYTGVPDRFSGSGSGTDFTLTISSLQPEDFAVYYCQQHYATPLTFGAGTKVEIKR
pEC50: 7.73

BINDER: TBD-22 (HC D109A) (Fab, V domains shown, Fab; also called HC D109A mutant) VH: QVQLQQSGSELKKPGASVKVSCKASGYTFTNYGMNWVKQAPGQGLKWMGWINTYTGEPTYTDDFKGRFAFSLDTSVSTAYLQISSLKADDTAVYFCARGGFGSSYWYFAVWGQGSLVTVSS VL: DIQLTQSPSSLSASVGDRVSITCKASQDVSIAVAWYQQKPGKAPKLLIYSASYRYTGVPDRFSGSGSGTDFTLTISSLQPEDFAVYYCQQHYITPLTFGAGTKVEIKR
pEC50: 9.22

BINDER: TBD-11 (HC R98A) (Fab, V domains shown, Fab; also called HC R98A mutant) VH: QVQLQQSGSELKKPGASVKVSCKASGYTFTNYGMNWVKQAPGQGLKWMGWINTYTGEPTYTDDFKGRFAFSLDTSVSTAYLQISSLKADDTAVYFCAAGGFGSSYWYFDVWGQGSLVTVSS VL: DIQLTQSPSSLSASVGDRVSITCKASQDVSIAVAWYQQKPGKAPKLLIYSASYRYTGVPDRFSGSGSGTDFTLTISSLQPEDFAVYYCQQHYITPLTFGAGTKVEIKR
pEC50: 6.81

// data source = patent US20230357429A1
